Below, each entry is listed alongside its reported OD450.
- target.desc: T1, murine CD22 protein (ACROBiosystems, SI2-M52Ha) (murine, UniProt P35329 22-708)
- T1 construct: extracellular domain; also called murine CD22-ECD; murine CD22-ECD-His
- T1 sequence (looked up): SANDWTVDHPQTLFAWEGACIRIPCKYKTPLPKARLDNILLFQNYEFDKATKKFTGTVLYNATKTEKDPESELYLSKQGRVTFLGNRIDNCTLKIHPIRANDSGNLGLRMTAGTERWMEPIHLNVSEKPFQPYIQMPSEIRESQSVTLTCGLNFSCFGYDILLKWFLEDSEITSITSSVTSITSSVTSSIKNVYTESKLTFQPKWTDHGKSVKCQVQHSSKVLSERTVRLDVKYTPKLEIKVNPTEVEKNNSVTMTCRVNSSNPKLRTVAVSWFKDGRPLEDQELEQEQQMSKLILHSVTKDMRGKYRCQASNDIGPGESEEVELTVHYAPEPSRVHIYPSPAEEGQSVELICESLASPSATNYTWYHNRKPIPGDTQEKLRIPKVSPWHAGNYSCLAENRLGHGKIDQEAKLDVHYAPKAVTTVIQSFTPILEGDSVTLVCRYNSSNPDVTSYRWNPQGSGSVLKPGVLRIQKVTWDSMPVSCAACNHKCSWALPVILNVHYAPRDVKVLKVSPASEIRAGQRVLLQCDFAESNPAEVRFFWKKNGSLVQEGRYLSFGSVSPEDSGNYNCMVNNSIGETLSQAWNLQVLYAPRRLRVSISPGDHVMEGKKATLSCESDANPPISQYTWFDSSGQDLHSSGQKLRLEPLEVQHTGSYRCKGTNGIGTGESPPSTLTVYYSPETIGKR
- test.name: ELISA, coated murine CD22, 0.01 nM Ab

Here is how some binders turned out for OD450.
F2.55.1 human-murine chimeric antibody (antibody, human IgG1, lambda, V domains shown, Chimeric, human IgG1 / lambda; VL tied by name) VH: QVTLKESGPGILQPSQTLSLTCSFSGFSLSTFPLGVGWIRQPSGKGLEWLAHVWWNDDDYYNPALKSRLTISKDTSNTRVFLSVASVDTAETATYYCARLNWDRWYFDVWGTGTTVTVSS VL: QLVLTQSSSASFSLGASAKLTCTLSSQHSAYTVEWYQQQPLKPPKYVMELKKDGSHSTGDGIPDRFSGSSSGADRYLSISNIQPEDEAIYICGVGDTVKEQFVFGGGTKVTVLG: 0.05 OD450
F2.173.9 human-murine chimeric antibody (antibody, human IgG1, lambda, V domains shown, Chimeric, human IgG1 / lambda) VH: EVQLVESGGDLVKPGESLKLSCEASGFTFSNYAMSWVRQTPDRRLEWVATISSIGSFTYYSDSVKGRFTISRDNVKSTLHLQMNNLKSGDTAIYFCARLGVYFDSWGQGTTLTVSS VL: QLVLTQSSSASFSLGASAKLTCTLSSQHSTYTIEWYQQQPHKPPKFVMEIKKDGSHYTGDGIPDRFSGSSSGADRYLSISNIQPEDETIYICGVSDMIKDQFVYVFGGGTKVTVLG: 0.05 OD450

We now examine a further binder.
Endpoint output: OD450 of F1.105.11 human-murine chimeric antibody (antibody, human IgG1, kappa, V domains shown, Chimeric, human IgG1 / kappa; VL tied by name) VH: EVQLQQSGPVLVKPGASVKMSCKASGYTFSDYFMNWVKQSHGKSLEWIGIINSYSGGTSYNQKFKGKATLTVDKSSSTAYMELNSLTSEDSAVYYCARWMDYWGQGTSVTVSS VL: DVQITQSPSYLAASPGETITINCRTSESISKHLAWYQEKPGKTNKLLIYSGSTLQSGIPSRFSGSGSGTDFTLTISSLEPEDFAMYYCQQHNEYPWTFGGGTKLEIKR . Value? 0.05 OD450
